Catalogue of pKd readings, one per entry.
Molecular target: T1, Cbx7.V1 D8E back-mutant (human, UniProt O95931 7-66, Q9D | V10I (printed as the back-mutation I10V) | K33E | P37L (printed as the …))
T1 construct: chromodomain of human Cbx7, UniProt O95931; Cbx7.V1 with residue 8 back to the wild type; source: E. coli BL21(DE3), purified (Ni-NTA)
T1 sequence: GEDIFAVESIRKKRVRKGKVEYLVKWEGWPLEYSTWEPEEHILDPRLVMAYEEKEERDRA
Assay: BLI; biotinylated peptides immobilised on streptavidin biosensor tips (Octet HTX); chromodomains in solution at 5 or 1 µM; 25 °C; 25 mM HEPES pH 7.0, 150 mM NaCl, 1 mg/ml BSA, 0.01% Tween-20; steady-state fit, Langmuir model
Settings: both partners purified
// scale note: pKd = -log10(conc_M); give the bare number

1) KQLATKAARKSAPATGGVK (trimethyl-lysine at K27; biotin followed by an aminohexanoic acid linker at the N-terminus) [H3K27me3 peptide, N-terminal biotin] ... 5.70

# input for lookup
input: Assign pKd to the following record: ARTKQTARKSTGGKAPR (trimethyl-lysine at K9; biotin followed by an aminohexanoic acid linker at the N-terminus) [H3K9me3 peptide, N-terminal biotin]
output: 5.30
